- Assay Details: chemical genetic growth profiling, strain panel (AID 1159580);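 also: tested at 20 µM; growth read once vehicle control cultures reached saturation at 30 °C; 1 = growth at the plate median or of vehicle wells; lower values mean less growth of the strain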
- Particulars: S. cerevisiae deletion strains, growth OD, locus YNR049C, strain mso1, hits give low values
In all, about 5,500 compounds went through this assay and about 2,000 (36%) were called active. Another 18% or so got no clear call; they are omitted. The list shows a part of the results.
Listed here: items and their measured normalized growth.
Give the figure by itself; no unit, no explanation.

Reference set (3 entries):
Compound: CC1(C)CCCC2(C)C3C1[C@@H](O)C2(C)C[C@H]3O (some centres not stated)
Experimental Readout: normalized growth
Endpoint Result: 0.993
//
Compound: O=C1C=CC2=C3c4cc(O)c(O)cc4CC3(O)COC2=C1O (configuration not stated)
Experimental Readout: normalized growth
Endpoint Result: 1.05
//
Compound: C[C@H](N)[C@H](O)c1ccc(O)c(O)c1
Experimental Readout: normalized growth
Endpoint Result: 1

Q) Name the reported normalized growth value associated with the compound C1CNCCN1
A) 1.01

Q) Name the reported normalized growth value associated with the compound O=C1C=CC2=C3c4cc(O)c(O)cc4C[C@@]3(O)COC2=C1
A) 0.977
